B1: ZER1 (parent)
chain: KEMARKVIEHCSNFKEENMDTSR

- Variants of: B1
- assay_summary: protein stability index of a GFP-peptide fusion (GPS, HEK-293T) (PSI 1-6); higher = more stable;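 note: lentivirally expressed fusions sorted by FACS into six bins by GFP to DsRed ratio, PSI derived from sequencing read proportions per bin multiplied by bin number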
- assay_setup: c terminus: native
value_type: protein stability index
Keep it simple and answer with nothing but the number.

[
  {
    "sequence_input": "KEMARKVIQHCSNFKEENMDTSR [E9Q]",
    "reading": 4.08
  }
]

Output protein stability index of KEMARKVIEHCSNFKEENTDTSR [M19T]
3.92

Output protein stability index of KEMARKVIEHCSNFKPENMDTSR [E16P]
3.31

Output protein stability index of KEMARKVIEHCSNFKEENMYTSR [D20Y]
2.89

Output protein stability index of KEMARKVIEHCSNFKWENMDTSR [E16W]
2.16
